- experimental.system: T1, CTNI quality control recombinant protein (PK2-CTNI-1, 170120, produced by the applicant) (human, UniProt P19429 2-210, limits assumed)
- T1 construct: also called cardiac troponin I
- T1 sequence (P19429 2-210 limits assumed): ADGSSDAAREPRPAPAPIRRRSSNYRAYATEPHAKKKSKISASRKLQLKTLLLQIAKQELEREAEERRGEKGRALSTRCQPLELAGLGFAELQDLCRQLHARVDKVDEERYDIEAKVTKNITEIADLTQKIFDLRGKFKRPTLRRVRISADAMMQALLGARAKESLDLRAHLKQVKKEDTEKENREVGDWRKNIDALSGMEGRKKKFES
- experiment.summary: AMC sensor kinetics, antibody captured, cTnI analyte
Kd values by entry
The reply should be a number in nM, with the unit left off.

Answered cases to consult:
binder: Mutation 1-6 (antibody, V domains shown, built as for Mutation 1) VH: EVQLQQSGAELVKPGASVKLSCTASGFNIKDYFMHWMKQRTEQGLDWIGRIDPEDGETKYAPEFQGKATITADTSSNTAYLQLSTLTSEDTAVYYCARYYSSYVPFVYWGQGTLVTASA VL: DVVMTQTPLSLSVSLGDQASISCRSSQSILYSNRHTYLHWYLQKPGQSPKLLIFQVSNRFSGVPDRFSGSGSGTDFTLKINRVEAEDLGVYFCSQSTHIPYTFGSGTKLEIKR
Kd (nM): 0.734
//
binder: Mutation 1-7 (antibody, V domains shown, built as for Mutation 1) VH: EVQLQQSGAELVKPGASVKLSCTASGFNIKDYYMHWMKQRTEQGLDWIGRIDPEDAETRYAPEFQGKATITADTSSNTAYLQLSTLTSEDTAVYYCARYYSSYIPFVYWGQGTLVTASA VL: DVVMTQTPLSLSVSLGDQASISCRSSQSLIYSNRHTYLHWYLQKPGQSPKLLIFQISNRFSGVPDRFSGSGSGTDFTLKINRVEAEDLGVYFCSQSTHLPYTFGSGTKLEIKR
Kd (nM): 0.804
//
binder: Mutation 1-20 (antibody, V domains shown, built as for Mutation 1) VH: EVQLQQSGAELVKPGASVKLSCTASGFNLKDYFMHWMKQRTEQGLDWIGRIDPEDGETKYAPEFQGKATITADTSSNTAYLQLSTLTSEDTAVYYCARYYSSYVPFVYWGQGTLVTASA VL: DVVMTQTPLSLSVSLGDQASISCRSSQSLIYSNRHTYLHWYLQKPGQSPKLLIFQVSNRFSGVPDRFSGSGSGTDFTLKINRVEAEDLGVYFCSQSTHIPFTFGSGTKLEIKR
Kd (nM): 0.945
//
binder: Mutation 1-25 (antibody, V domains shown, built as for Mutation 1) VH: EVQLQQSGAELVKPGASVKLSCTASGFNLKDYYMHWMKQRTEQGLDWIGRIDPEDGETRYAPEFQGKATITADTSSNTAYLQLSTLTSEDTAVYYCARYYSSYIPFVYWGQGTLVTASA VL: DVVMTQTPLSLSVSLGDQASISCRSSQSIIYSNRHTYLHWYLQKPGQSPKLLIFQISNRFSGVPDRFSGSGSGTDFTLKINRVEAEDLGVYFCSQSTHLPYTFGSGTKLEIKR
Kd (nM): 0.97
//
binder: Mutation 1-19 (antibody, V domains shown, built as for Mutation 1) VH: EVQLQQSGAELVKPGASVKLSCTASGFNIKDYYMHWMKQRTEQGLDWIGRIDPEDGETRYAPEFQGKATITADTSSNTAYLQLSTLTSEDTAVYYCARYYSSYLPFVYWGQGTLVTASA VL: DVVMTQTPLSLSVSLGDQASISCRSSQSLIYSNRHTYLHWYLQKPGQSPKLLIFQLSNRFSGVPDRFSGSGSGTDFTLKINRVEAEDLGVYFCSQSTHIPFTFGSGTKLEIKR
Kd (nM): 0.487
//
binder: Mutation 1-5 (antibody, V domains shown, built as for Mutation 1) VH: EVQLQQSGAELVKPGASVKLSCTASGFNLKDYYMHWMKQRTEQGLDWIGRIDPEDGETRYAPEFQGKATITADTSSNTAYLQLSTLTSEDTAVYYCARYYSSYIPFVYWGQGTLVTASA VL: DVVMTQTPLSLSVSLGDQASISCRSSQSIIYSNRHTYLHWYLQKPGQSPKLLIFQISNRFSGVPDRFSGSGSGTDFTLKINRVEAEDLGVYFCSQSTHIPFTFGSGTKLEIKR
Kd (nM): 0.623

Report Kd for Mutation 1-41 (antibody, V domains shown, built as for Mutation 1) VH: EVQLQQSGAELVKPGASVKLSCTASGFNIKDYYMHWMKQRTEQGLDWIGRIDPEDGETRYAPEFQGKATITADTSSNTAYLQLSTLTSEDTAVYYCARYYSSYIPFVYWGQGTLVTASA VL: DVVMTQTPLSLSVSLGDQASISCRSSQSILYSNRHTYLHWYLQKPGQSPKLLIFQISNRFSGVPDRFSGSGSGTDFTLKINRVEAEDLGVYFCSQSTHIPYTFGSGTKLEIKR please.
0.723

Ok, now Mutation 1-4 (antibody, V domains shown, built as for Mutation 1) VH: EVQLQQSGAELVKPGASVKLSCTASGFNLKDYFMHWMKQRTEQGLDWIGRIDPEDAETKYAPEFQGKATITADTSSNTAYLQLSTLTSEDTAVYYCARYYSSYVPFVYWGQGTLVTASA VL: DVVMTQTPLSLSVSLGDQASISCRSSQSLLYSNRHTYLHWYLQKPGQSPKLLIFQVSNRFSGVPDRFSGSGSGTDFTLKINRVEAEDLGVYFCSQSTHLPFTFGSGTKLEIKR
0.963

Next record, please: Mutation 1-28 (antibody, V domains shown, built as for Mutation 1) VH: EVQLQQSGAELVKPGASVKLSCTASGFNLKDYFMHWMKQRTEQGLDWIGRIDPEDAETKYAPEFQGKATITADTSSNTAYLQLSTLTSEDTAVYYCARYYSSYLPFVYWGQGTLVTASA VL: DVVMTQTPLSLSVSLGDQASISCRSSQSLIYSNRHTYLHWYLQKPGQSPKLLIFQLSNRFSGVPDRFSGSGSGTDFTLKINRVEAEDLGVYFCSQSTHLPFTFGSGTKLEIKR
0.189

Param item: Mutation 1-47 (antibody, V domains shown, built as for Mutation 1) VH: EVQLQQSGAELVKPGASVKLSCTASGFNLKDYYMHWMKQRTEQGLDWIGRIDPEDAETKYAPEFQGKATITADTSSNTAYLQLSTLTSEDTAVYYCARYYSSYVPFVYWGQGTLVTASA VL: DVVMTQTPLSLSVSLGDQASISCRSSQSLLYSNRHTYLHWYLQKPGQSPKLLIFQVSNRFSGVPDRFSGSGSGTDFTLKINRVEAEDLGVYFCSQSTHLPFTFGSGTKLEIKR
0.81
